Data provenance: the supplement of paper PMC9112550

Tested on: Escherichia coli TOP10
Experiment: shrunken log2 fold change of peptide-encoding DNA abundance (4.5 h post-induction vs induction); higher = less antimicrobial activity (less host growth inhibition)
Settings: time post-induction: 4.5 h; library: site-saturation at positions 5, 18, 19, 20
Please map values of shrunken log2 fold change to classes as shown: bin A (below -0.1), bin B (-0.1 to below 0.06), bin C (0.06 or more)

residue-string | classification
RRIRCRPPRLPRPRPRPSFLPRP | bin A
RRIRDRPPRLPRPRPRPWFFPRP | bin C
RRIRMRPPRLPRPRPRPWSMPRP | bin A
RRIRNRPPRLPRPRPRPGACPRP | bin B
RRIRDRPPRLPRPRPRPSLWPRP | bin C
RRIRKRPPRLPRPRPRPYETPRP | bin B
RRIRSRPPRLPRPRPRPGTEPRP | bin B
RRIRERPPRLPRPRPRPYGPPRP | bin A
RRIRTRPPRLPRPRPRPRFDPRP | bin C
RRIRLRPPRLPRPRPRPYHTPRP | bin A
RRIRERPPRLPRPRPRPLGRPRP | bin B
RRIRSRPPRLPRPRPRPDNSPRP | bin A
RRIRDRPPRLPRPRPRPYLFPRP | bin C

====

Tested on: Escherichia coli TOP10
Test: shrunken log2 fold change of peptide-encoding DNA abundance (4.5 h post-induction vs induction); higher = less antimicrobial activity (less host growth inhibition)
Conditions: time post-induction: 4.5 h; library: site-saturation at positions 5, 18, 19, 20
# shrunken log2 fold change binned as lower level = under -0.06, middle level = from -0.06 up to 0.05, upper level = 0.05 and over

residue-string | target-desc | classification
RRIRCRPPRLPRPRPRPTMWPRP | Escherichia coli TOP10 | upper level
RRIRTRPPRLPRPRPRPCCHPRP | Escherichia coli TOP10 | middle level
RRIRFRPPRLPRPRPRPIYLPRP | Escherichia coli TOP10 | lower level
RRIRFRPPRLPRPRPRPRGPPRP | Escherichia coli TOP10 | upper level
RRIRWRPPRLPRPRPRPYFIPRP | Escherichia coli TOP10 | lower level
RRIRGRPPRLPRPRPRPCQYPRP | Escherichia coli TOP10 | upper level
RRIRVRPPRLPRPRPRPNSSPRP | Escherichia coli TOP10 | lower level
RRIRSRPPRLPRPRPRPTVRPRP | Escherichia coli TOP10 | middle level
RRIRARPPRLPRPRPRPVFIPRP | Escherichia coli TOP10 | lower level
RRIRFRPPRLPRPRPRPNPWPRP | Escherichia coli TOP10 | middle level
RRIRRRPPRLPRPRPRPQRHPRP | Escherichia coli TOP10 | lower level
RRIRSRPPRLPRPRPRPLAGPRP | Escherichia coli TOP10 | upper level
RRIRERPPRLPRPRPRPDRWPRP | Escherichia coli TOP10 | middle level
RRIRWRPPRLPRPRPRPCVVPRP | Escherichia coli TOP10 | upper level
RRIRERPPRLPRPRPRPPKCPRP | Escherichia coli TOP10 | middle level

====

Test system: Escherichia coli TOP10
Assay: shrunken log2 fold change of peptide-encoding DNA abundance (4.5 h post-induction vs induction); higher = less antimicrobial activity (less host growth inhibition)
Conditions: time post-induction: 4.5 h; library: site-saturation at positions 5, 18, 19, 20
Label yes for high-side shrunken log2 fold change (at or above -0.03) and no for low-side shrunken log2 fold change (below it).

residue-string | classification
RRIRMRPPRLPRPRPRPPTMPRP | yes
RRIRNRPPRLPRPRPRPKDCPRP | no
RRIRFRPPRLPRPRPRPEEIPRP | yes
RRIRMRPPRLPRPRPRPLCEPRP | yes
RRIRIRPPRLPRPRPRPTFVPRP | no
RRIRMRPPRLPRPRPRPAYNPRP | no
RRIRMRPPRLPRPRPRPLMFPRP | yes
RRIRDRPPRLPRPRPRPHWTPRP | no
RRIRIRPPRLPRPRPRPKEDPRP | no
RRIRLRPPRLPRPRPRPYQGPRP | no
RRIRSRPPRLPRPRPRPRNAPRP | yes
RRIRFRPPRLPRPRPRPFFWPRP | yes
RRIRIRPPRLPRPRPRPAGLPRP | no
RRIRHRPPRLPRPRPRPGAEPRP | yes
RRIRFRPPRLPRPRPRPDITPRP | no
RRIRKRPPRLPRPRPRPLNCPRP | yes
RRIRFRPPRLPRPRPRPFKTPRP | no
RRIRIRPPRLPRPRPRPVRTPRP | no
RRIRRRPPRLPRPRPRPDMNPRP | yes
RRIRNRPPRLPRPRPRPSLIPRP | no
RRIRCRPPRLPRPRPRPDKRPRP | yes
RRIRMRPPRLPRPRPRPQMSPRP | yes
RRIRDRPPRLPRPRPRPMDWPRP | yes
RRIRIRPPRLPRPRPRPPAHPRP | yes
RRIRKRPPRLPRPRPRPQNNPRP | no
RRIRCRPPRLPRPRPRPKAVPRP | yes
RRIRPRPPRLPRPRPRPHYEPRP | no
RRIRRRPPRLPRPRPRPRPFPRP | yes
RRIRIRPPRLPRPRPRPFIYPRP | no
RRIRLRPPRLPRPRPRPYHHPRP | no
RRIRVRPPRLPRPRPRPVSCPRP | yes
RRIRDRPPRLPRPRPRPNWTPRP | yes
RRIRPRPPRLPRPRPRPMVRPRP | no
RRIRFRPPRLPRPRPRPILVPRP | no
RRIRKRPPRLPRPRPRPDEWPRP | yes
RRIRFRPPRLPRPRPRPDQPPRP | yes
RRIRTRPPRLPRPRPRPDNKPRP | no
RRIRLRPPRLPRPRPRPCQHPRP | no
RRIRMRPPRLPRPRPRPEIFPRP | yes
RRIRMRPPRLPRPRPRPGNRPRP | yes
RRIRDRPPRLPRPRPRPNEQPRP | yes
RRIRIRPPRLPRPRPRPGNLPRP | no
RRIRFRPPRLPRPRPRPGYHPRP | no
RRIRMRPPRLPRPRPRPFIKPRP | no
RRIRTRPPRLPRPRPRPDISPRP | no
RRIRVRPPRLPRPRPRPWAAPRP | yes
RRIRARPPRLPRPRPRPWFNPRP | no
RRIRERPPRLPRPRPRPSLQPRP | yes
RRIRTRPPRLPRPRPRPNCGPRP | yes
RRIRCRPPRLPRPRPRPDKIPRP | no
RRIRGRPPRLPRPRPRPNTKPRP | no
RRIRRRPPRLPRPRPRPWPDPRP | yes
RRIRVRPPRLPRPRPRPHMEPRP | no
RRIRGRPPRLPRPRPRPWSMPRP | yes
RRIRSRPPRLPRPRPRPYRPPRP | no
RRIRMRPPRLPRPRPRPCINPRP | no
RRIRYRPPRLPRPRPRPWSLPRP | yes
RRIRWRPPRLPRPRPRPTECPRP | yes
RRIRERPPRLPRPRPRPSPWPRP | no
RRIRDRPPRLPRPRPRPFREPRP | no
RRIRERPPRLPRPRPRPIWTPRP | no
RRIRWRPPRLPRPRPRPTYSPRP | no
RRIRMRPPRLPRPRPRPINEPRP | no

====

Tested on: Escherichia coli TOP10
Assay: shrunken log2 fold change of peptide-encoding DNA abundance (4.5 h post-induction vs induction); higher = less antimicrobial activity (less host growth inhibition)
Conditions: time post-induction: 4.5 h; library: site-saturation at positions 5, 18, 19, 20
So basically, the class depends on measured shrunken log2 fold change, and the ranges are bottom end (below -0.2), midrange (-0.2 to below 0.003), top end (0.003 or more)

residue-string | classification
RRIRMRPPRLPRPRPRPLIIPRP | bottom end
RRIRWRPPRLPRPRPRPPDCPRP | bottom end
RRIRRRPPRLPRPRPRPWQNPRP | midrange
RRIRWRPPRLPRPRPRPLYYPRP | bottom end
RRIRLRPPRLPRPRPRPLQYPRP | bottom end
RRIRKRPPRLPRPRPRPYRLPRP | bottom end
RRIRPRPPRLPRPRPRPWYYPRP | midrange
RRIRPRPPRLPRPRPRPTADPRP | top end
RRIRKRPPRLPRPRPRPWSAPRP | top end
RRIRKRPPRLPRPRPRPAQEPRP | top end
RRIRTRPPRLPRPRPRPQKCPRP | midrange
RRIRRRPPRLPRPRPRPRTFPRP | top end
RRIRERPPRLPRPRPRPETKPRP | bottom end

====

System: Escherichia coli TOP10;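 further: peptides expressed intracellularly from a pBAD plasmid library in pooled LB shake-flask culture, induced with 0.3% L-arabinose, DNA abundance read by NGS, three biological replicates, DESeq2 with apeglm shrinkage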
Assay: shrunken log2 fold change of peptide-encoding DNA abundance (4.5 h post-induction vs induction); higher = less antimicrobial activity (less host growth inhibition)
Conditions: time post-induction: 4.5 h; library: site-saturation at positions 5, 18, 19, 20

residue-string | shrunken log2 fold change
RRIRVRPPRLPRPRPRPLLKPRP | 0.0167
RRIRSRPPRLPRPRPRPVAWPRP | 0.0469
RRIRHRPPRLPRPRPRPIRHPRP | -0.0447
RRIRARPPRLPRPRPRPNFEPRP | 0.356
RRIRLRPPRLPRPRPRPRGDPRP | 0.553
RRIRIRPPRLPRPRPRPHERPRP | -0.169
RRIRKRPPRLPRPRPRPFYRPRP | 0.0824
RRIRHRPPRLPRPRPRPNYIPRP | -1.35
